B1: EHEE_rd4_0726 (parent)
chain: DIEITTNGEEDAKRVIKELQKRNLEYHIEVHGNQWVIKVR

Variants of: B1
Test Method Notes: folding stability dG (cDNA display proteolysis); higher = more stable
Reported Conditions: PBS, room temperature
Assay Endpoint: folding stability dG (kcal/mol)

INSERT INTO assay_data (variant_label, value_units, result) VALUES
  ('W35I', 'kcal/mol', 2.06),
  ('V36W', 'kcal/mol', 1.16),
  ('G8A', 'kcal/mol', 1.91),
  ('E9V', 'kcal/mol', 2.15),
  ('H27L', 'kcal/mol', 2.37),
  ('T5G', 'kcal/mol', 1.08),
  ('I4N', 'kcal/mol', -0.395),
  ('V30C', 'kcal/mol', 2.23),
  ('L24R', 'kcal/mol', 1.65),
  ('G32F', 'kcal/mol', 1.51),
  ('E9A', 'kcal/mol', 2.26),
  ('W35V', 'kcal/mol', 1.67),
  ('I2N', 'kcal/mol', 1.49),
  ('D11F', 'kcal/mol', 2.31),
  ('N33A', 'kcal/mol', 2),
  ('L24Y', 'kcal/mol', 1.89),
  ('Y26P', 'kcal/mol', 0.491),
  ('I2T', 'kcal/mol', 1.91),
  ('E10G', 'kcal/mol', 1.77),
  ('Q20F', 'kcal/mol', 1.68),
  ('A12M', 'kcal/mol', 2.51),
  ('R14L', 'kcal/mol', 2.3);
